assay: Clearance in rat at 0.5 mg/kg, iv; conditions: in vivo
READOUT LABEL: clearance (mL/min/kg)
Give bare numbers, in mL/min/kg.

(Q) If you can, please state the reported clearance value of N#Cc1cc(Cl)cc(Oc2c(Cl)ccc(Cc3n[nH]c4nnccc34)c2F)c1 .
(A) 2.9

---

experiment: Volume of distribution at steady state in monkey at 0.5 mg/kg, iv; conditions: rhesus monkey, in vivo, read-out: Vdss
READOUT LABEL: Vd
The reply should consist of the numeric value with the unit placed after it.

(Q) If you can, please state the reported Vd value of N#Cc1cc(Cl)cc(Oc2c(Cl)ccc(Cc3n[nH]c4nnccc34)c2F)c1 .
(A) 1.21 L/kg

---

tested on: Human immunodeficiency virus; assay: Antiviral activity against NNRTI-resistant HIV HXB2 with reverse transcriptase 188H mutation in human MT4 cells assessed as protection against virus-induced cell death after 5 days by MTT assay; type: functional, organism-based; conditions: Human immunodeficiency virus 1, MT4
READOUT LABEL: pEC50
Answers are plain numbers, as −log10 of the molar value.

(Q) If you can, please state the reported pEC50 value of O=C1Nc2ccc(Cl)cc2[C@@](C#CC2CC2)(C(F)(F)F)O1 .
(A) 8.40

---

target: Human immunodeficiency virus type 1 reverse transcriptase (Human immunodeficiency virus 1, UniProt Q72547)
READOUT LABEL: IC50 (nM)
Answers are plain numbers, in nM.

Some compounds with recorded IC50:
N#Cc1cc(Cl)cc(Oc2c(Br)ccc(Cc3n[nH]c4nccnc34)c2F)c1    3
N#Cc1cc(Cl)cc(Oc2c(Br)ccc(Cc3n[nH]c4c(C#N)cccc34)c2F)c1    24

Provide reported IC50 for each item, in the same order as listed.
1. N#Cc1cc(Cl)cc(Oc2c(Br)ccc(Cc3n[nH]c4cnccc34)c2F)c1
2. N#Cc1cc(Cl)cc(Oc2c(Br)ccc(Cc3n[nH]c4ncccc34)c2F)c1
3. Cn1ccc2c(Cc3ccc(Br)c(Oc4cc(Cl)cc(C#N)c4)c3F)n[nH]c2c1=O
4. N#Cc1cc(Cl)cc(Oc2c(Br)ccc(Cc3n[nH]c4c(N)cccc34)c2F)c1

(A)
1. 5
2. 8
3. 8
4. 24

---

Assignment: determine reported IC50 for the given compounds.
tested on: Human immunodeficiency virus; assay: Antiviral activity against NNRTI-resistant HIV HXB2 isolate 20 with reverse transcriptase K103, Y181 mutation in human MT4 cells assessed as protection against virus-induced cell death after 5 days by MTT assay; type: functional, organism-based; settings: Human immunodeficiency virus 1, MT4, 120 h
One number for each entry, in nM.

Cc1cc(C#N)cc(C)c1Oc1nc(Nc2ccc(C#N)cc2)nc(N)c1Br [ETRAVIRINE]    7

(Q) If you can, please state the reported IC50 value of N#Cc1cc(Cl)cc(Oc2c(Cl)ccc(Cc3n[nH]c4nnccc34)c2F)c1 .
(A) 4

---

assay: Clearance in dog at 0.5 mg/kg, iv; details: in vivo
READOUT LABEL: clearance (mL/min/kg)
Give bare numbers, in mL/min/kg.

(Q) If you can, please state the reported clearance value of N#Cc1cc(Cl)cc(Oc2c(Cl)ccc(Cc3n[nH]c4nnccc34)c2F)c1 .
(A) 4.6

---

target: Human immunodeficiency virus type 1 reverse transcriptase (Human immunodeficiency virus 1, UniProt Q72547, K103N/Y181C); experiment: Inhibition of RNA-dependent DNA polymerase activity of HIV1 reverse transcriptase Lys103Asn/Tyr181Cys mutant by SPA
Assignment: determine reported IC50 for the given compounds.
Give bare numbers, in nM.

N#Cc1cc(Cl)cc(Oc2c(Br)ccc(Cc3n[nH]c4nccnc34)c2F)c1    14

Provide reported IC50 for each item, in the same order as listed.
1. N#Cc1cc(Cl)cc(Oc2c(Br)ccc(Cc3n[nH]c4c(N)cccc34)c2F)c1
2. N#Cc1cc(Cl)cc(Oc2c(Br)ccc(Cc3n[nH]c4c(C#N)cccc34)c2F)c1
3. N#Cc1cc(Cl)cc(Oc2c(Br)ccc(Cc3n[nH]c4cnccc34)c2F)c1

(A)
[22, 15, 9]

(Q) If you can, please state the reported IC50 value of Cn1ccc2c(Cc3ccc(Br)c(Oc4cc(Cl)cc(C#N)c4)c3F)n[nH]c2c1=O .
(A) 12

---

experiment: Volume of distribution at steady state in rat at 0.5 mg/kg, iv; settings: in vivo, read-out: Vdss
READOUT LABEL: Vd (L/kg)
Answers are plain numbers, in L/kg.

(Q) If you can, please state the reported Vd value of N#Cc1cc(Cl)cc(Oc2c(Cl)ccc(Cc3n[nH]c4nnccc34)c2F)c1 .
(A) 0.91

---

molecular target: Human immunodeficiency virus type 1 reverse transcriptase (Human immunodeficiency virus 1, UniProt Q72547, K103N); experiment: Inhibition of RNA-dependent DNA polymerase activity of HIV1 reverse transcriptase Lys103Asn mutant by SPA
READOUT LABEL: pIC50
Answers are plain numbers, as −log10 of the molar value.

(Q) If you can, please state the reported pIC50 value of Cc1cc(C#N)cc(Oc2ccc(Cc3n[nH]c4nnccc34)cc2Br)c1 .
(A) 6.92

---

experiment: Volume of distribution at steady state in dog at 0.5 mg/kg, iv; conditions: in vivo, read-out: Vdss
READOUT LABEL: Vd (L/kg)
Give bare numbers, in L/kg.

(Q) If you can, please state the reported Vd value of N#Cc1cc(Cl)cc(Oc2c(Cl)ccc(Cc3n[nH]c4nnccc34)c2F)c1 .
(A) 0.99

---

system: Human immunodeficiency virus; experiment: Antiviral activity against NNRTI-resistant HIV HXB2 with reverse transcriptase 227L mutation in human MT4 cells assessed as protection against virus-induced cell death after 5 days by MTT assay; format: functional, organism-based; details: Human immunodeficiency virus 1, MT4, 120 h
READOUT LABEL: EC50 (nM)
Answers are plain numbers, in nM.

(Q) If you can, please state the reported EC50 value of O=C1Nc2ccc(Cl)cc2[C@@](C#CC2CC2)(C(F)(F)F)O1 .
(A) 1

---

test: Half life in dog at 0.5 mg/kg, iv; conditions: in vivo
READOUT LABEL: half-life (h)
Give bare numbers, in h.

(Q) If you can, please state the reported half-life value of N#Cc1cc(Cl)cc(Oc2c(Cl)ccc(Cc3n[nH]c4nnccc34)c2F)c1 .
(A) 5.6

---

test: Half life in monkey at 0.5 mg/kg, iv; settings: rhesus monkey, in vivo
READOUT LABEL: half-life (h)
Numbers only, in h.

(Q) If you can, please state the reported half-life value of N#Cc1cc(Cl)cc(Oc2c(Cl)ccc(Cc3n[nH]c4nnccc34)c2F)c1 .
(A) 12.2
